B1: USP39 (parent)
chain: TLSEAYIQIWKRRDNDETNQQGA

- Variants of: B1
- Protocol Summary: protein stability index of a GFP-peptide fusion (GPS, HEK-293T) (PSI 1-6); higher = more stable;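 note: lentivirally expressed fusions sorted by FACS into six bins by GFP to DsRed ratio, PSI derived from sequencing read proportions per bin multiplied by bin number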
- Measurement Setup: c terminus: native
Using protein stability index as the sorting value, the categories are range A = under 2, range B = from 2 up to 3, range C = 3 and over

Completed entries (count: 2):
Sequence Variant: Y6Q
Class Name: range C
//
Sequence Variant: T1V
Class Name: range B

Dear colleague, I would appreciate it if you could identify the bin for `T1D` and reply at your convenience.
range B

Dear colleague, I would appreciate it if you could identify the bin for `A23V` and reply at your convenience.
range C
